We begin with a simple list: items and their reported SIF (% remaining 4 h).
test: Peptide stability in simulated intestinal fluid (SIF); format: in vitro ADME; details: 4 h, 37 °C, pH 6.8, porcine pancreatin 10 g/L, 10 µM
*1 amine or outer side, *2 acyl side, *3 side chain or, on linkers, in order; H or OH if unused. Where a SMILES comes first, the peptide text is derived from it. Bridges are numbered along the chain shown (N, C = ends). [ ]: non-standard residue; d: D form. 2Nal = N[C@@H](Cc1ccc2ccccc2c1)C(=O)O; AEF = NCCOc1ccc(C[C@H](N)C(=O)O)cc1; X1 = O=C(Cc1ccc(CN[*:1])cc1)[*:2]; 3Pal = N[C@@H](Cc1cccnc1)C(=O)O; αMeL = CC(C)C[C@](C)(N)C(=O)O; Dab = NCC[C@H](N)C(=O)O
Numeric answer only, unit % assumed.

q: Returns the measured SIF (% remaining 4 h) for the input molecule. Input: CC(C)C[C@]1(C)NC(=O)[C@H](Cc2ccc3ccccc3c2)NC(=O)[C@H](Cc2ccc(OCCN)cc2)NC(=O)[C@@H]2CCNC(=O)CC[C@H](NC(=O)[C@H](CO)NC(=O)Cc3ccc(cc3)CNC(=O)CC[C@@H](C(=O)N[C@@H](CCN)C(=O)N[C@@H](Cc3cccnc3)C(=O)N[C@H](Cc3c[nH]cn3)C(N)=O)NC1=O)C(=O)N[C@@H](Cc1c[nH]c3ccccc13)C(=O)N[C@@H](CCC(N)=O)C(=O)N2 [Compound 10] ([X1]SEWQ[Dab][AEF][2Nal][αMeL]E[Dab][3Pal][dH]-NH2; lactam 3-6, N-10)
a: 11

// moving on: another record for SIF (% remaining 4 h)
q: Any idea what SIF (% remaining 4 h) was measured for CSCC[C@H](NC(=O)[C@@H]1CSCC(=O)CSC[C@H](NC(=O)[C@@H](N)CCC(=O)O)C(=O)N[C@@H](Cc2c[nH]c3ccccc23)C(=O)N[C@@H](CC(C)C)C(=O)N[C@H]2CSCC(=O)CSC[C@H](NC(=O)[C@H](CC(N)=O)NC(=O)[C@H](CCCNC(=N)N)NC(=O)[C@H](Cc3ccc(O)cc3)NC(=O)[C@H](Cc3ccc(O)cc3)NC2=O)C(=O)N[C@@H](CC(N)=O)C(=O)N1)C(N)=O (single isomer, unassigned) [I4 (isomer 3), H-EC(4a)WLC(5a)YYRNC(5a)NC(4a)M-[NH2], reference compound] ?
a: 0

Hello, the source for this data is patent EP4471049A1, in case you need it.
